The reported numbers originate from patent US20260055182A1.

Item-by-item account of EC50
TARGET: T1, L1-CAM recombinant protein (His Tag), human (human, UniProt P32004 20-1120)
T1 construct: Bought protein; also called CD171; human L1-CAM; not shown: His tag
T1 sequence (P32004 20-1120 limits assumed): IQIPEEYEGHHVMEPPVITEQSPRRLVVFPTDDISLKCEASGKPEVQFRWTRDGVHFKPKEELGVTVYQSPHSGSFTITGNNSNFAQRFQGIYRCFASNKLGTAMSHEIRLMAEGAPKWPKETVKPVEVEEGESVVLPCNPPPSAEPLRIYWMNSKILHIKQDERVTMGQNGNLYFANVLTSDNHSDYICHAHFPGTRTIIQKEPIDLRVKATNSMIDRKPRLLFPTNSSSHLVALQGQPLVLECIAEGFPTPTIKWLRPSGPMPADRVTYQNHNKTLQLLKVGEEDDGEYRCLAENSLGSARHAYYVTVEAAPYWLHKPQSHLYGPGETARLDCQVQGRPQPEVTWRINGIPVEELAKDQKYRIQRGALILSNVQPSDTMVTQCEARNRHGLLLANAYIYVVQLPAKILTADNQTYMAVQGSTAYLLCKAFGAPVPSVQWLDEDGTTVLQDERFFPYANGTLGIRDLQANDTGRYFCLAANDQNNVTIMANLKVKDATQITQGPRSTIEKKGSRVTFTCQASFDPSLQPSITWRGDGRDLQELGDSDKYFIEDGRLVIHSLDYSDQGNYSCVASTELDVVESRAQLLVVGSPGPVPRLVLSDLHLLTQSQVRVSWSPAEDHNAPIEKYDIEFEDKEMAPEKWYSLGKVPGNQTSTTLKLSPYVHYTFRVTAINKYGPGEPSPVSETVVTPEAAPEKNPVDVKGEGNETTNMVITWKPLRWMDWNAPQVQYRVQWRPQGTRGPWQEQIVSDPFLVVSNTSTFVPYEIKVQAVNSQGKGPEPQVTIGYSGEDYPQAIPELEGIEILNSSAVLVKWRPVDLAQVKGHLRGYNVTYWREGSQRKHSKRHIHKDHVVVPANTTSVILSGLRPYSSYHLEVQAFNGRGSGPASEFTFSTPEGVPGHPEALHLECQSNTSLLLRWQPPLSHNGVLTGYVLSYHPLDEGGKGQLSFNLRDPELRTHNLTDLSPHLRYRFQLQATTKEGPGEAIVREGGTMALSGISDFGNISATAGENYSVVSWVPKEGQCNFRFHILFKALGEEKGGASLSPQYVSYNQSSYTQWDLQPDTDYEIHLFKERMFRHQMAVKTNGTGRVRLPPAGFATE
ASSAY_REMARKS: ELISA, human L1-CAM coated at 2 µg/ml
PARAMETER_MEASURED: EC50 (µg/mL)

| BINDER | ENDPOINT_UNIT | NUMERIC_VALUE |
| --- | --- | --- |
| CE7-variant13 (antibody, V domains shown, Human IgG1 kappa, L234A L235A P331S; also called CE7-434-VHA-1NL1-VLA; humanized variant 13) VH: QVQLQQWGAGLLKPSETLSLTCAAYGYTFTGYWMHWIRQPPGKGLEWIGEINPSNGRTNYNERLKSRVTLSVDKSKNQASLKLSSVTAADTAVYFCARDYYGTSYNFDYWGQGTLVTVSS VL: DIQMTQSPSSLSASVGDRVTITCKANEDINNRLAWYQQKPGKAPKLLISGATNLVTGVPSRFSGSGSGKDYTLTISSLQPEDFATYYCQQYWSTPFTFGQGTKLEIKR | µg/mL | 0.05 |
| CE7-variant24 (antibody, V domains shown, CE7-1-2-VHC + CE7-1-NL1-VLD; human IgG1 kappa, L234A L235A P331S N297A (aglycosylated); also called humanized variant 24) VH: QVQLVQSGAEVKKPGASVKVSCKASGYTFTGYWMHWVRQAPGQGLEWIGEINPSNGRTNYNEKFQGRVTLTVDKSISTAYMELSRLRSDDTAVYYCARDYYGTSYNFDYWGQGTLVTVSS VL: DIQMTQSPSSLSASVGDRVTITCRASQGINNRLAWYQQKPGKAPKLLISGASNLVSGVPSRFSGSGSGKDYTLTISSLQPEDFATYYCQQYWSTPFTFGQGTKLEIKR | µg/mL | 0.0396 |
| LV3 (antibody, V domains shown, CE7-VH-chimeric-WH33L + CE7-VL-chimeric; chimeric CE7, human IgG1 kappa, L234A L235A P331S N297A; also called liability variant 3) VH: QVQLQQPGAELVKPGASVKLSCKASGYTFTGYLMHWVKQRPGHGLEWIGEINPSNGRTNYNERFKSKATLTVDKSSTTAFMQLSGLTSEDSAVYFCARDYYGTSYNFDYWGQGTTLTVSS VL: DIQMTQSSSSFSVSLGDRVTITCKANEDINNRLAWYQQTPGNSPRLLISGATNLVTGVPSRFSGSGSGKDYTLTITSLQAEDFATYYCQQYWSTPFTFGSGTELEIKR | µg/mL | 0.0328 |
| CE7-variant28 (antibody, V domains shown, CE7-1-2-VHD + CE7-1-NL1-VLD; human IgG1 kappa, L234A L235A P331S N297A (aglycosylated); also called humanized variant 28) VH: QVQLVQSGAEVKKPGASVKVSCKASGYTFTGYWMHWVRQAPGQGLEWMGEINPSNGRTNYNEKFQGRVTLTVDKSISTAYMELSRLRSDDTAVYYCARDYYGTSYNFDYWGQGTLVTVSS VL: DIQMTQSPSSLSASVGDRVTITCRASQGINNRLAWYQQKPGKAPKLLISGASNLVSGVPSRFSGSGSGKDYTLTISSLQPEDFATYYCQQYWSTPFTFGQGTKLEIKR | µg/mL | 0.0701 |
| LV4 (antibody, V domains shown, CE7-VH-chimeric-GH55A + CE7-VL-chimeric; chimeric CE7, human IgG1 kappa, L234A L235A P331S N297A; also called liability variant 4) VH: QVQLQQPGAELVKPGASVKLSCKASGYTFTGYWMHWVKQRPGHGLEWIGEINPSNARTNYNERFKSKATLTVDKSSTTAFMQLSGLTSEDSAVYFCARDYYGTSYNFDYWGQGTTLTVSS VL: DIQMTQSSSSFSVSLGDRVTITCKANEDINNRLAWYQQTPGNSPRLLISGATNLVTGVPSRFSGSGSGKDYTLTITSLQAEDFATYYCQQYWSTPFTFGSGTELEIKR | µg/mL | 0.0394 |
